# Assay Target: T1, human TSLPR (on cells) (human, UniProt Q9HC73 23-371)
# T1 sequence: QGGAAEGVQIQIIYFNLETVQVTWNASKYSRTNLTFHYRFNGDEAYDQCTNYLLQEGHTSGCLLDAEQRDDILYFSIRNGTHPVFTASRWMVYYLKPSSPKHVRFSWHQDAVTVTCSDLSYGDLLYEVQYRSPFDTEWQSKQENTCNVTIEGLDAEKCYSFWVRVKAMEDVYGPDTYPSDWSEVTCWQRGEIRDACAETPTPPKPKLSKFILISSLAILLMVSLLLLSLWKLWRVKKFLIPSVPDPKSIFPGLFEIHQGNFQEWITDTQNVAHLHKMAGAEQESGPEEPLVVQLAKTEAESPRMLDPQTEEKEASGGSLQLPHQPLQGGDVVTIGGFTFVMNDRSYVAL
# Experiment Description: cell-based or functional assay
Recorded Metric: IC50 proliferation (example 4) (µg/mL)
Report as a plain number; the unit µg/mL is understood.

A selection of reference data follows.
TSLPR-012 (hamster) (antibody, V domains shown, Parent Armenian hamster monoclonal antibody; the hamster constant regions are not; also called TSLP-012; hamster antibody TSLPR-012) VH: QIQLQESGPGLVKPSQSLSLTCSVTGFSITTSGYYWTWIRQFPGKKLEWMGYIGYNSKTYYNPSLKSRISITRDTSKNQFLLHLNSVTTEDTATYYCARSLYGGYKDAFDSWGQGTLVTVSS VL: DVVLTQTPATLSAIPGERVTMTCKASQSIGTSLHWYQHRPNETPRLLIKFASRSITGIPSRFSGSGSGTDFTLGINNLEAEDFAIYYCQQSPGFPPTFGSGTKLEINR ... 0.026
TSLPR-012_141, CDR grafted (antibody, V domains shown, Humanized (CDR grafted) variant of hamster TSLPR-012; human kappa and human IgG1 or IgG4(S228P,L235E) appear only as embodiments) VH: QVQLVESGGGLVKPGGSLRLSCAASGFSITTSGYYWTWIRQFPGKGLEWMGYIGYNSKTYYNPALKSRITISRDNAKNSLYLQMNSLRAEDTAVYYCARSLYGGYKDAFDSWGQGTLVTVSS VL: DIQMTQSPSSLSASVGDRVTITCRASQSIGTSLHWYQQKPGKAPKLLIKFASRLQSGVPSRFSGSGSGTDFTLTISSLQPEDFATYYCQQSPGFPPTFGQGTKLEIKR ... 0.037
TSLPR-012_75, CDR grafted (antibody, V domains shown, Humanized (CDR grafted) variant of hamster TSLPR-012; human kappa and human IgG1 or IgG4(S228P,L235E) appear only as embodiments) VH: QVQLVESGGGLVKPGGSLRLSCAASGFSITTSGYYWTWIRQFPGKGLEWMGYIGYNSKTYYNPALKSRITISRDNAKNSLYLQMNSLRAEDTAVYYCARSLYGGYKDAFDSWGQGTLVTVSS VL: EIVLTQSPDFQSVTPKEKVTITCRASQSIGTSLHWYQQKPDQSPKLLIKFASRSISGVPSRFSGSGSGTDFTLTINSLEAEDAATYYCQQSPGFPPTFGQGTKLEIKR ... 0.026
TSLPR-012_189, CDR grafted (antibody, V domains shown, Humanized (CDR grafted) variant of hamster TSLPR-012; human kappa and human IgG1 or IgG4(S228P,L235E) appear only as embodiments) VH: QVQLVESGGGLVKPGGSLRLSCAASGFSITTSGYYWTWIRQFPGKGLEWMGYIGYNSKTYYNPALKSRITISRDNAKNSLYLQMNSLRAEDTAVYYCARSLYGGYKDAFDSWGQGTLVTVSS VL: EIVMTQSPATLSVSPGERATLSCRASQSIGTSLHWYQQKPGQAPRLLIKFASRSITGIPARFSGSGSGTEFTLTISSLQSEDFAVYYCQQSPGFPPTFGQGTKLEIKR ... 0.025

For reference, reported IC50 proliferation (example 4) for TSLPR-012_166, CDR grafted (antibody, V domains shown, Humanized (CDR grafted) variant of hamster TSLPR-012; human kappa and human IgG1 or IgG4(S228P,L235E) appear only as embodiments) VH: QVQLQESGPGLVKPSQTLSLTCTVSGFSITTSGYYWSWIRQHPGKGLEWIGYIGYNSKTYYSPSLKSRVTISRDTSKNQFSLKLSSVTAADTAVYYCARSLYGGYKDAFDSWGQGTLVTVSS VL: DIQMTQSPSSLSASVGDRVTITCRASQSIGTSLHWYQHRPGETPKLLIKFASRSISGVPSRFSGSGSGTDFTLTISSLQPEDFATYYCQQSPGFPPTFGQGTKLEIKR stands at 0.034

The values you see were collected from patent US20120020988A1.
